Test: Pharmacokinetics in healthy volunteers with repeated weekly administration
Format: in vivo, human
Conditions: human, in vivo, oral, 41.4 mg/week; read-out: concentration of active metabolite Ia a week later (168 hours)

| smiles-str | concentration at 168 h, ng/mL |
| --- | --- |
| N#Cc1cc(Cl)cc(Oc2c(Br)ccc(CC(=O)Nc3ccc(S(N)(=O)=O)cc3Cl)c2F)c1 | 26.1 |

----------
Experiment: Pharmacokinetics in healthy volunteers with repeated weekly administration
Assay type: in vivo, human
Conditions: human, in vivo, oral, 82.8 mg/week; read-out: Cmax of active metabolite Ia in the first week

| smiles-str | output-unit | Cmax |
| --- | --- | --- |
| N#Cc1cc(Cl)cc(Oc2c(Br)ccc(CC(=O)Nc3ccc(S(N)(=O)=O)cc3Cl)c2F)c1 | ng/mL | 63.6 |

----------
Assay: Pharmacokinetics in healthy volunteers with repeated weekly administration
Format: in vivo, human
Settings: human, in vivo, oral, 41.4 mg/week; read-out: Cmax of active metabolite Ia in the first week

| smiles-str | Cmax, ng/mL |
| --- | --- |
| N#Cc1cc(Cl)cc(Oc2c(Br)ccc(CC(=O)Nc3ccc(S(N)(=O)=O)cc3Cl)c2F)c1 | 34.5 |
